Overview of recorded EC50 for various compounds
Molecular target: TLR7 (Homo sapiens)
Construct: human HEK-Blue cells co-expressing a TLR7 or TLR8 gene
Sequence (Q9NYK1 27-1049): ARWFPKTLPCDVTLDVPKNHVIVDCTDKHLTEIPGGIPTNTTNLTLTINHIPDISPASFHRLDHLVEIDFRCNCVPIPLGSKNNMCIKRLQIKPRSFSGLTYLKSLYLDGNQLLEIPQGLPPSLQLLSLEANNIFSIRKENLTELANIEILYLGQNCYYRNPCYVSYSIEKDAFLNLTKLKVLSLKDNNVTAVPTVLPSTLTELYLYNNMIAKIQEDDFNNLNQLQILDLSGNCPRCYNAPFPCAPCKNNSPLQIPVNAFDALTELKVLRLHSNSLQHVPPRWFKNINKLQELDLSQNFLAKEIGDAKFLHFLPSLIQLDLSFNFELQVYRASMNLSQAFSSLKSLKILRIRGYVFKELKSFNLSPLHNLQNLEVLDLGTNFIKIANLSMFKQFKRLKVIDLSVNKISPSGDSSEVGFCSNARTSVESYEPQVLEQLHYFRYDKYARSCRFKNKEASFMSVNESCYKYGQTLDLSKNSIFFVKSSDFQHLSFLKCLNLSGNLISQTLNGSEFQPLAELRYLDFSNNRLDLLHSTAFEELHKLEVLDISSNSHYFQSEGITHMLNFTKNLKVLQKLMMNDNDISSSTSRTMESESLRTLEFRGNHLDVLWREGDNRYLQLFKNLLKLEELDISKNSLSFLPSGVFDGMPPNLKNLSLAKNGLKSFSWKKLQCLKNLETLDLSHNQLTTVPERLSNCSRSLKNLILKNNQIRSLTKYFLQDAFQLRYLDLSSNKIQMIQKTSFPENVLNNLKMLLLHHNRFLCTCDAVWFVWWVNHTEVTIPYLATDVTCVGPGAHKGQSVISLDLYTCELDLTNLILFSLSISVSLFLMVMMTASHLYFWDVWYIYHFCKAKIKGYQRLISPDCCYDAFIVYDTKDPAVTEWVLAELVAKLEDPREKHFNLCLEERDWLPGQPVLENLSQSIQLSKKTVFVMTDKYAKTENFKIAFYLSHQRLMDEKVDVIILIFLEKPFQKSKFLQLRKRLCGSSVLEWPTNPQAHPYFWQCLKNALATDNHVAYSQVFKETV
Assay: In vitro human TLR7 binding reporter assay (HEK-Blue, NF-kB/AP1-inducible SEAP)
Type: cell-based
Details: activity range class, read-out: TLR7 Agonist EC50
VALUE TYPE: EC50

1. N#CCCCn1cc2c(N)nc3cc(-c4cc[nH]n4)ccc3c2n1: > 100 µM
2. CS(=O)(=O)CCCn1cc2c(N)nc3cc(-c4cc[nH]n4)ccc3c2n1: > 100 µM
3. COC[C@@H](O)Cn1cc2c(N)nc3cc(-c4cc[nH]n4)ccc3c2n1: > 100 µM
4. Nc1nc2cc(-c3cc[nH]n3)ccc2c2nn(CC3CCOC3)cc12 (single isomer, unassigned) [Example 328]: > 100 µM
5. Nc1nc2cc(-c3cc[nH]n3)ccc2c2nn(CCc3c[nH]cn3)cc12: > 100 µM
6. Nc1nc2cc(-c3cc[nH]n3)ccc2c2nn(C[C@@H]3CCC(=O)N3)cc12: > 100 µM

* * *

Overview of recorded pEC50 for various molecules
Molecular target: TLR8 (Homo sapiens)
Construct: human HEK-Blue cells co-expressing a TLR7 or TLR8 gene
Sequence (Q9NR97 27-1041): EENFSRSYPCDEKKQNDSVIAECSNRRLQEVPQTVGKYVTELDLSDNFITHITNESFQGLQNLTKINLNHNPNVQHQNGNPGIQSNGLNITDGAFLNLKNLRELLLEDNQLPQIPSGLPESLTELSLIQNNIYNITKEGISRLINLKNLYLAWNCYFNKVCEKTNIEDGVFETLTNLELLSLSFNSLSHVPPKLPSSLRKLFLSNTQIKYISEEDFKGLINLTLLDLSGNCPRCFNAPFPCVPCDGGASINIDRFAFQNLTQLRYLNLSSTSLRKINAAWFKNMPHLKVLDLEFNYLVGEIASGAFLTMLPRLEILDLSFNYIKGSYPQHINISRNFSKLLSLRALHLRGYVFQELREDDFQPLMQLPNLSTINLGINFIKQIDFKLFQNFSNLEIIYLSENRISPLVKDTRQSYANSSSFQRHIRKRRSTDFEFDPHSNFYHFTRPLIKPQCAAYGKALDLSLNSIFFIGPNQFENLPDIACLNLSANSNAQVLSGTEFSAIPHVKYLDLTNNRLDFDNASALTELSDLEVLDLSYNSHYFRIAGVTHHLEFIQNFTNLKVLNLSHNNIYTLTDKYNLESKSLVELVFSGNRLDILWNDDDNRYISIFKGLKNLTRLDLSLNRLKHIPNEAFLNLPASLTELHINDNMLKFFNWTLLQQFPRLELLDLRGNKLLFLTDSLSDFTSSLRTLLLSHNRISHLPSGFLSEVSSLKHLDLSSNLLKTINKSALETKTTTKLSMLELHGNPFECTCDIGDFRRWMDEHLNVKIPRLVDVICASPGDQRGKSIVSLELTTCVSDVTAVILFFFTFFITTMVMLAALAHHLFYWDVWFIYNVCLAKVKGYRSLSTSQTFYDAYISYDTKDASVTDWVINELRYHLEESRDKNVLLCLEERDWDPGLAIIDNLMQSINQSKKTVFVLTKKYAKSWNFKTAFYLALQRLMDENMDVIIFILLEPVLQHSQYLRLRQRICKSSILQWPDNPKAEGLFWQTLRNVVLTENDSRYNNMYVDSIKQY
Assay: In vitro human TLR8 binding reporter assay (HEK-Blue, NF-kB/AP1-inducible SEAP)
Type: cell-based
Details: activity range class, read-out: TLR8 Agonist EC50
pEC50: −log10 of the molar value.
VALUE TYPE: pEC50

1) Nc1nc2cc(-c3cc[nH]n3)ccc2c2nn(C3CCOC3)cc12 (single isomer, unassigned) [Example 238]: < 4.00
2) Nc1nc2cc(-c3cc[nH]n3)ccc2c2c1cnn2CCCO [Example 216]: < 4.00
3) Nc1nc2cc(-c3cc[nH]n3)ccc2c2nn(CC3(O)CCOCC3)cc12 [Example 320]: < 4.00
4) CC(C)C(O)Cn1cc2c(N)nc3cc(-c4cc[nH]n4)ccc3c2n1 (stereo not drawn) [Example 374]: < 4.00
5) Nc1nc2cc(-c3ccn[nH]3)ccc2c2nn(CCNC(=O)c3ccccn3)nc12 [Example 159]: < 4.00
6) CCNCCn1cc2c(N)nc3cc(-c4ccn[nH]4)ccc3c2n1 [Example 279]: < 4.00
7) Nc1nc2cc(-c3ccn[nH]3)ccc2c2nn(CCNC(=O)c3csc(Cl)n3)nc12 [Example 158]: 4.00 to 4.70
8) Nc1nc2cc(-c3cc[nH]n3)ccc2c2cn(CCNC(=O)COCC(F)(F)F)nc12 [Example 178]: < 4.00
9) Nc1nc2cc(-c3cc[nH]n3)ccc2c2cn(CCCOc3ccccc3)nc12 [Example 2]: 4.00 to 4.70
10) Nc1nc2cc(-c3cc[nH]n3)ccc2c2nn(CCNC(=O)c3cc(Cl)ccn3)cc12 [Example 197]: < 4.00
11) Nc1nc2cc(-c3cc[nH]n3)ccc2c2nn(CC3(CO)CC3)cc12 [Example 353]: < 4.00
12) Nc1nc2cc(-c3cc[nH]n3)ccc2c2cn(CCNC(=O)c3cc(F)ccn3)nc12 [Example 54]: < 4.00
13) Nc1nc2cc(-c3cc[nH]n3)ccc2c2cn(CCNC(=O)c3ncccc3Cl)nc12 [Example 92]: < 4.00
14) COC(C)Cn1cc2c(N)nc3cc(-c4cc[nH]n4)ccc3c2n1 (stereo not drawn) [Example 331]: < 4.00
15) Cc1nc(C(=O)NCCn2cc3c(n2)c(N)nc2cc(-c4cc[nH]n4)ccc23)ccc1C(F)(F)F [Example 56]: 4.70 to 6.00
16) CC(Cn1ncc2c(N)nc3cc(-c4cc[nH]n4)ccc3c21)NS(C)(=O)=O (stereo not drawn) [Example 302]: < 4.00
17) Nc1nc2cc(-c3cc[nH]n3)ccc2c2cn(CCCN3CCOCC3)nc12 [Example 27]: < 4.00
18) Nc1nc2cc(-c3ccn[nH]3)ccc2c2cn(CCF)nc12 [Example 193]: 4.00 to 4.70
19) Nc1nc2cc(-c3cc[nH]n3)ccc2c2nn(C[C@@H]3CCC(=O)N3)cc12 [Example 384]: < 4.00
20) CN(C)CCn1cc2c(n1)c(N)nc1cc(-c3cc[nH]n3)ccc12 [Example 21]: < 4.00
21) Nc1nc2cc(-c3cc[nH]n3)ccc2c2c1cnn2Cc1cn[nH]c1 [Example 359]: < 4.00
22) Nc1nc2cc(-n3cccn3)ccc2c2c1cnn2CCO [Example 250]: < 4.00
23) Nc1nc2cc(-c3ccn[nH]3)ccc2c2sc(CCNC(=O)c3ccccn3)nc12 [Example 136]: < 4.00
24) Nc1nc2cc(-c3cc[nH]n3)ccc2c2cn(CCNCc3cccnc3)nc12 [Example 110]: 4.70 to 6.00

FYI, the data here is from patent US12037344B2.
